Test system: methicillin resistant S. aureus Mu50 strain (S. aureus ATCC700699) biofilm
methodDescription: Biofilm susceptibility to vancomycin, combination treatment regimen (mature biofilm treated with compound plus vancomycin)
Format: cell-based
conditionSet: compound 100 μM together with VAN 20 μg/ml on mature biofilm; compared to the untreated (negative) control
observationType: Combin. (100 μM): percentage Colony Forming Units (CFU's) per biofilm (percentage)
A number alone suffices; assume percentage.

entrySmiles: O=C(NC[C@H]1OC[C@@](O)(CNC(=O)c2ccccc2Cl)[C@@H]1O)c1ccccc1Cl
numericResult: 13.59
--
entrySmiles: N#Cc1cccc(C(=O)NC[C@H]2OC[C@@](O)(CNC(=O)c3ccccc3)[C@@H]2O)c1
numericResult: 14.49
--
entrySmiles: CN(C[C@H]1OC[C@@](O)(CNC(=O)c2ccccc2)[C@@H]1O)C(=O)c1ccccc1
numericResult: 10.02
--
entrySmiles: O=C(NC[C@H]1OC[C@@](O)(CNC(=O)c2ccccc2)[C@@H]1O)c1ccc2ccccc2c1
numericResult: 36.32
--
entrySmiles: O=C(NC[C@]1(O)CO[C@H](CNC(=O)c2cccnn2)[C@H]1O)c1ccccc1
numericResult: 15.17
--
entrySmiles: O=C(NC[C@]1(O)CO[C@H](CNC(=O)c2c(Cl)cc(Cl)cc2Cl)[C@H]1O)c1ccccc1
numericResult: 13.31

[in] Entry O=C(NC[C@]1(O)CO[C@H](CN2Cc3ccccc3C2=O)[C@H]1O)c1ccccc1 : reported Combin. (100 μM): percentage Colony Forming Units (CFU's) per biofilm = ?
[out] 30.15

[in] # query: Combin. (100 μM): percentage Colony Forming Units (CFU's) per biofilm of entry O=C(NC[C@]1(O)CO[C@H](Cn2cc(-c3ccccc3)nn2)[C@H]1O)c1ccccc1
[out] 33.81

These measurements were taken from patent US10023602B2.
